# MEASURED ON: 5-HT2A receptor (Homo sapiens (Human))
# Type: cell-based
# TEST CONTEXT: beta-arrestin recruitment
PROPERTY: 5-HT2A Arrestin % Act @ Max Dose (%)
Just the number please, in %, no unit attached.

Here are 5 molecules together with their reported answers.
1. CC[C@@H](C)NC(=O)[C@@H]1C=C2c3cccc4[nH]cc(c34)C[C@H]2N(C)C1 ... 46.06
2. CCCN1C[C@@H](C(=O)N[C@H](C)CC)C=C2c3cccc4[nH]cc(c34)C[C@H]21 ... 112.91
3. CCC[C@@H](C)NC(=O)[C@H]1C=C2c3cccc4[nH]cc(c34)C[C@H]2N(C)C1 [Int17a] ... 43.729
4. CCC[C@@H](C)NC(=O)[C@@H]1C=C2c3cccc4[nH]cc(c34)C[C@H]2N(C)C1 ... 38.809
5. CCN(CC)C(=O)[C@@H]1C=C2c3cccc4[nH]cc(c34)C[C@H]2N(Cc2ccccc2OC)C1 ... 47.06

Ask | Give 5-HT2A Arrestin % Act @ Max Dose (5-HT2A receptor (Homo sapiens (Human))) of the following molecule: CC[C@@H](C)NC(=O)[C@@H]1C=C2c3cccc4[nH]cc(c34)C[C@H]2N(CC)C1
Reply | 105.72

Ask | Under 5-HT2A receptor (Homo sapiens (Human)): 5-HT2A Arrestin % Act @ Max Dose value of CCCN1C[C@H](C(=O)N[C@H](C)CC)C=C2c3cccc4[nH]cc(c34)C[C@H]21 ?
Reply | 109.57

Ask | Hello, I am looking for reported 5-HT2A Arrestin % Act @ Max Dose with 5-HT2A receptor (Homo sapiens (Human)) for CCC(CC)NC(=O)[C@@H]1C=C2c3cccc4[nH]cc(c34)C[C@H]2N(C)C1 . Could you help?
Reply | 44.377

Ask | Item: C[C@H]1C[C@H](C)N1C(=O)[C@@H]1C=C2c3cccc4[nH]cc(c34)C[C@H]2N(C)C1 Test system: 5-HT2A receptor (Homo sapiens (Human)) Read-out: 5-HT2A Arrestin % Act @ Max Dose Value: ?
Reply | 49.269

Ask | Can you look up 5-HT2A Arrestin % Act @ Max Dose on 5-HT2A receptor (Homo sapiens (Human)) for CCCN1C[C@H](C(=O)N2[C@@H](C)C[C@@H]2C)C=C2c3cccc4[nH]cc(c34)C[C@H]21 ?
Reply | 116.8

Ask | Form field: 5-HT2A Arrestin % Act @ Max Dose recorded for CCN(CC)C(=O)[C@@H]1C=C2c3cccc4[nH]cc(c34)C[C@H]2N(C)C1 [LSD, lysergic acid diethylamide, reference compound] with 5-HT2A receptor (Homo sapiens (Human)) (enter value)
Reply | 52.646

Ask | Please provide the recorded 5-HT2A Arrestin % Act @ Max Dose for C=CCN1C[C@@H](C(=O)N[C@H](C)CC)C=C2c3cccc4[nH]cc(c34)C[C@H]21 , tested on 5-HT2A receptor (Homo sapiens (Human)).
Reply | 81.117

Ask | Kindly state the measured 5-HT2A Arrestin % Act @ Max Dose obtained for CCCN1C[C@H](C(=O)N(CC)CC)C=C2c3cccc4[nH]cc(c34)C[C@H]21 with 5-HT2A receptor (Homo sapiens (Human)).
Reply | 128.71

Ask | Missing value: 5-HT2A Arrestin % Act @ Max Dose, 5-HT2A receptor (Homo sapiens (Human)), entry CCC(CC)NC(=O)[C@H]1C=C2c3cccc4[nH]cc(c34)C[C@H]2N(C)C1 [Int14a] . Fill in?
Reply | 44.321

Ask | What value of 5-HT2A Arrestin % Act @ Max Dose on 5-HT2A receptor (Homo sapiens (Human)) does CCC[C@@H](C)NC(=O)[C@@H]1C=C2c3cccc4[nH]cc(c34)C[C@H]2N(CCC)C1 have?
Reply | 110.2

Ask | Give 5-HT2A Arrestin % Act @ Max Dose (5-HT2A receptor (Homo sapiens (Human))) of the following molecule: CCN(CC)C(=O)[C@@H]1C=C2c3cccc4[nH]cc(c34)C[C@H]2N(CCc2ccccc2OC)C1
Reply | 54.255
